# System: HUVEC
# assay: Cytotoxicity against HUVEC assessed as cell viability > 200 uM after 24 hrs by MTT assay
# Assay type: cell-based
# measurement-context: human
observed-property: Activity

COc1cc(OC)c2c(c1)O[C@@]1(C)OC[C@H](C)[C@H]1C2 : Non-toxic
CCCCCCOc1cc2c(c3c1C[C@@H]1[C@@H](C)CO[C@]1(C)O3)C[C@@H]1[C@@H](C)CO[C@]1(C)O2 : Non-toxic
C#CCOc1cc2c(c3c1C[C@@H]1[C@@H](C)CO[C@]1(C)O3)C[C@@H]1[C@@H](C)CO[C@]1(C)O2 : Non-toxic

###

# Test system: HUVEC
# assay: Cytotoxicity against HUVEC assessed as cell viability > 200 uM after 24 hrs by MTT assay
# Assay type: cell-based
# measurement-context: human
observed-property: Activity

C[C@H]1CO[C@]2(C)Oc3c(c4c(c5c3C[C@@H]3[C@@H](C)CO[C@]3(C)O5)C[C@@H]3[C@@H](C)CO[C@]3(C)O4)C[C@H]12 : Non-toxic
CC1COC2(C)Oc3c(c4c(c5c3CC3C(C)COC3(C)O5)CC3C(C)COC3(C)O4)CC12 (racemic) : Non-toxic
CNC(=O)c1c(O)c2c(c3c1O[C@@]1(C)OC[C@H](C)[C@H]1C3)O[C@@]1(C)OC[C@H](C)[C@H]1C2 : Non-toxic
C[C@H]1CO[C@]2(C)Oc3c(c(O)c(Cc4c(O)c5c(c6c4O[C@@]4(C)OC[C@H](C)[C@H]4C6)O[C@@]4(C)OC[C@H](C)[C@H]4C5)c4c3C[C@@H]3[C@@H](C)CO[C@]3(C)O4)C[C@H]12 : Non-toxic
